assay: Clearance in rhesus monkey at 1 mg/kg, iv measured over 24 hrs by LC/MS/MS analysis; format: ADME, organism-based, Macaca mulatta; conditions: in vivo
Measurement Name: clearance (mL/min/kg)
// units = mL/min/kg; emit number, no label

Annotate the compound N#Cc1c(N)nc(N)nc1N[C@H](c1nc2c(F)ccc(Cl)c2c(=O)n1-c1cccnc1)C1CC1 with its measured clearance.
11.7

* * *

molecular target: PI3K p110 beta/p85 alpha (Homo sapiens, UniProt P42338); assay: Inhibition of recombinant human full-length N-terminal His-tagged PI3K p110beta/p85alpha using […] as substrate measured after 30 mins by TR-FRET assay
Sequence (P27986 whole entry): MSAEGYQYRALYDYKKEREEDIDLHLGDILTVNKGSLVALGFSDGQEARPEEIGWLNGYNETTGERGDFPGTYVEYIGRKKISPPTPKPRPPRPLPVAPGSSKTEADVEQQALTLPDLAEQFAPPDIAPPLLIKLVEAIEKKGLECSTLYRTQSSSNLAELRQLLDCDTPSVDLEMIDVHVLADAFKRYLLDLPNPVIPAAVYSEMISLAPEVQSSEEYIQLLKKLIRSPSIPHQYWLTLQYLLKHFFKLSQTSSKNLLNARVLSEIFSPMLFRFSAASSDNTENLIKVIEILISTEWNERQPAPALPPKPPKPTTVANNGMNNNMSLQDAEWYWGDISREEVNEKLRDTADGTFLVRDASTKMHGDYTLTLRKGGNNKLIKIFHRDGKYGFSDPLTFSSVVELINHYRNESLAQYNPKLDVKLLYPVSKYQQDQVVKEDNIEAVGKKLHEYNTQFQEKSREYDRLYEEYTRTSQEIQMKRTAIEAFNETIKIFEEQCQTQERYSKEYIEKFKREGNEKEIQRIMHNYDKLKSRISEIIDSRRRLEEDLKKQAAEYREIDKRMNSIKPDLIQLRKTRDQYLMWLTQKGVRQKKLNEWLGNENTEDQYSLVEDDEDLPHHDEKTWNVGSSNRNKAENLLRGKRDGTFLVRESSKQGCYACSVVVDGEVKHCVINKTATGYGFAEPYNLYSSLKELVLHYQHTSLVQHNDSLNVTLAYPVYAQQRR
Sequence (P42338 whole entry): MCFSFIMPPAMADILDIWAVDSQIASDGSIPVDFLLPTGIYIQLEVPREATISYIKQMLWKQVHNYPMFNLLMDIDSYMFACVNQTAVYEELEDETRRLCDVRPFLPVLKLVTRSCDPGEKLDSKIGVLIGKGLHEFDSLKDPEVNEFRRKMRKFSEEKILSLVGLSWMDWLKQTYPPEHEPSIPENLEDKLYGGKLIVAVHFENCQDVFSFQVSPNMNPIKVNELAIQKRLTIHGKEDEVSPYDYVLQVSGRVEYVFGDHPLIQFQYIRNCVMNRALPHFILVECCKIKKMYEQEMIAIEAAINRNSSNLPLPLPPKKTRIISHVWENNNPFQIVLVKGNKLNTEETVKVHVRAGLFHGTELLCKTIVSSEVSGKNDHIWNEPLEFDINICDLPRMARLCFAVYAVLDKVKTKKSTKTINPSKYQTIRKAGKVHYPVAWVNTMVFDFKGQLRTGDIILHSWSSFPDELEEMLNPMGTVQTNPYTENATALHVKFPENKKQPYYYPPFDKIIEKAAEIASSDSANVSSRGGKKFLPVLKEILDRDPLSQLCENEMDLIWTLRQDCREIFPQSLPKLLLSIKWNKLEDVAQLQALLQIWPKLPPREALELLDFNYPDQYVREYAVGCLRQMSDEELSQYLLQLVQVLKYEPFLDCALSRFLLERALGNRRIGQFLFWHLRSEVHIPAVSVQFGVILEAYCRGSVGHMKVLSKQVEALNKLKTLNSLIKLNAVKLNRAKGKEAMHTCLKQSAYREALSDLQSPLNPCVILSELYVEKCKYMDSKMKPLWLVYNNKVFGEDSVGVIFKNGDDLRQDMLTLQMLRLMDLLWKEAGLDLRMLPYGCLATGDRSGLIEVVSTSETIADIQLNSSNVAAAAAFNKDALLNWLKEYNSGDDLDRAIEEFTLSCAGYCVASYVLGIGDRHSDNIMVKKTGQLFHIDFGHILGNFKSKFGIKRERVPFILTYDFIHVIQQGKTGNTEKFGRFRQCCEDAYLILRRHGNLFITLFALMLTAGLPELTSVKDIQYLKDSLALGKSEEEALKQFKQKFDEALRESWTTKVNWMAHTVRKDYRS
Measurement Name: log10(IC50) (log10 of the value in nM)
# log10 transformed; quantity=IC50; unit=nM

Solved cases (4 shown):
C[C@H](Nc1nc(N)nc(N)c1C#N)c1nc2c(F)ccc(F)c2c(=O)n1-c1cccnc1    2.89
Cc1ncccc1-n1c([C@H](C)Nc2nc(N)nc(N)c2C#N)nc2cccc(Cl)c2c1=O (stereo in doubt; 23)    2.54
Cc1ncccc1-n1c([C@H](C)Nc2nc(N)nc(N)c2C#N)nc2cccc(Cl)c2c1=O (stereo in doubt; 24)    2.64
COc1cncc(-n2c([C@H](C)Nc3nc(N)nc(N)c3C#N)nc3cccc(Cl)c3c2=O)c1    3.48

Return reported log10(IC50). Input compound: C[C@H](Nc1nc(N)nc(N)c1C#N)c1nc2c(F)ccc(Cl)c2c(=O)n1-c1cncc(F)c1
2.64

Specify measured log10(IC50) for Cc1c(F)cncc1-n1c([C@H](C)Nc2nc(N)nc(N)c2C#N)nc2cccc(Cl)c2c1=O (stereo in doubt; 27) .
2.08

Annotate the compound N#Cc1c(N)nc(N)nc1N[C@H](c1nc2c(F)ccc(Cl)c2c(=O)n1-c1cccnc1)C1CC1 [GS-9901] with its measured log10(IC50).
2.00

Read the entry Cc1c(F)cncc1-n1c([C@H](C)Nc2nc(N)nc(N)c2C#N)nc2cccc(Cl)c2c1=O (stereo in doubt; 28) and write its reported log10(IC50).
3.24

* * *

test: Thermal stability of compound assessed as half life at 40 degreeC measured over 72 hrs by HPLC analysis; assay type: physicochemical
Measurement Name: half-life
Give your result as the value with the unit written after it.

Give the reported half-life for this molecule. Cc1c(F)cncc1-n1c([C@H](C)Nc2nc(N)nc(N)c2C#N)nc2cccc(Cl)c2c1=O (stereo in doubt; 27)
72.9 days

* * *

target: PI3-kinase p110-alpha/p85-alpha (Homo sapiens, UniProt P42336); assay: Inhibition of human full length PI3K p110alpha/p85alpha using […] as substrate measured after 30 mins by TR-FRET assay
Sequence (P42336 whole entry, one chain of several): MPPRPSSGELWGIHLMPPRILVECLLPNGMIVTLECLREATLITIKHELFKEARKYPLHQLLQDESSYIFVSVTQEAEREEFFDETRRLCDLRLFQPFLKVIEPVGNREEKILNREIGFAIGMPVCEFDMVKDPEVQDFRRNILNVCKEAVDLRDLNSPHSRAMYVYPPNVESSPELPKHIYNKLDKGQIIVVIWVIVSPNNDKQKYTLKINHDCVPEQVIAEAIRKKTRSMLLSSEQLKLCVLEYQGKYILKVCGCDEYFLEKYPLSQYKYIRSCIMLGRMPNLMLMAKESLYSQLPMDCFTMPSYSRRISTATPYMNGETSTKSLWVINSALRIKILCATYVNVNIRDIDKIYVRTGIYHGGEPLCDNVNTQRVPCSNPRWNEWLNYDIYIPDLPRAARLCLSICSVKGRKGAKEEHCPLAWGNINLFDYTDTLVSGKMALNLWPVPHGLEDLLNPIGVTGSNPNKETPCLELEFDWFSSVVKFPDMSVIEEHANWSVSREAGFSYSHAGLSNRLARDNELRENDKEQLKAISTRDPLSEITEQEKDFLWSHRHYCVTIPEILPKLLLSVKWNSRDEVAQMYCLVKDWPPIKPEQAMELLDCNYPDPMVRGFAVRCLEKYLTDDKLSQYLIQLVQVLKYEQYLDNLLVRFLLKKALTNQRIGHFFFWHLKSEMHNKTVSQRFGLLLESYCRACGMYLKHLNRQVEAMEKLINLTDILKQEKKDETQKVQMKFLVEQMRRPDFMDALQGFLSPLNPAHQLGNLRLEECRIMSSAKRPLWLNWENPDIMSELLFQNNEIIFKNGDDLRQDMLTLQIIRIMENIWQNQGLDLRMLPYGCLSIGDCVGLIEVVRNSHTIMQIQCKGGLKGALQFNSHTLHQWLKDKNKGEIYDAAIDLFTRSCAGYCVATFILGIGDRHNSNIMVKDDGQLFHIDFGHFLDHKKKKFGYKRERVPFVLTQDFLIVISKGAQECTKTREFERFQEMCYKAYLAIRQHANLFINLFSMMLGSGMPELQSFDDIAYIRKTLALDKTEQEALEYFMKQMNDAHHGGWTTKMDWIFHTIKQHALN
Consider the following compounds and their measured IC50 readings.
Use µM as the unit, but write only the number.

A selection of reference data follows.
Cc1ccncc1-n1c([C@H](C)Nc2nc(N)nc(N)c2C#N)nc2cccc(Cl)c2c1=O (stereo in doubt; 25)    0.88
C[C@H](Nc1nc(N)nc(N)c1C#N)c1nc2c(F)ccc(Cl)c2c(=O)n1-c1cncc(F)c1    3.1

Report IC50 from PI3-kinase p110-alpha/p85-alpha (Homo sapiens, UniProt P42336) testing of C[C@H](Nc1nc(N)nc(N)c1C#N)c1nc2cccc(Cl)c2c(=O)n1-c1cncc(C2CC2)c1
10

Jot down IC50 (PI3-kinase p110-alpha/p85-alpha (Homo sapiens, UniProt P42336)) of Cc1ccncc1-n1c([C@H](C)Nc2nc(N)nc(N)c2C#N)nc2cccc(Cl)c2c1=O (stereo in doubt; 26) .
9.7
